# measurement target: M2 protein of influenza A/Hong Kong/483/97 (H5N1) (influenza A virus A/Hong Kong/483/97 (H5N1))
measured quantity: log10 FACS M2-HK MFI (log10 of the value in MFI)
# log10 transformed; quantity=FACS M2-HK MFI; unit=MFI

# query: log10 FACS M2-HK MFI of entry 3362_B11 (antibody, V domains shown) VH: QVQLQASGPGLVKPSETLSLTCTVSGDSITSGAYYWTWIRQHPGKGLEWIGYIYYSGNTYYNPSLKSRVTISLDTSKNQFSLKVNSVTAADTAVYYCARAASTSVLGYGMDVWGQGTTVTVSS VL: DIQMTQSPSSLSASVGDRVTITCRASQSISRYLNWYQQEPGKAPKLLVYAASSLQSGVPSRFSGSGSGTDFTLTISSLQPEDFATYYCQQSYSTPLTFGQGTRLEIK 2.34

Consider the binder shown here: 3244_I10 (antibody, V domains shown) VH: QVQLQESGPGLLKPSDTLALTCTVSGGSITSDYWSWIRQPPGRGLDWIGFFYNGGSTKYNPSLKSRVTISADTSKNQLSLKLTSVTAADTGVYYCARHDAKFSGSYYVASWGQGTRVTVSS VL: DIQMTQSPSSLSASVGDRVTISCRASQSISTYLNWYQQQPGKAPKVLIFGATNLQSGVPSRFSGSGSGTDFTLTISSLQPEDFATYYCQQSYNTPLIFGQGTKLEIK What is its recorded log10 FACS M2-HK MFI? 2.64

May I ask what log10 FACS M2-HK MFI has been recorded for 3241_G23 (antibody, V domains shown) VH: QVQLQQSGPGLVKPSQTLSLTCTVSGGPVSGGGYSWNWIRQRPGQGLEWVGFMFHSGSPRYNPTLKSRITISVDTSKNLVSLKLSSVTAADTAVYFCARVGQMDKYYAMDVWGQGTTVTVSS VL: DIQMTQSPSSLSSSVGDRVTITCRASQSIGAYVNWYQQKAGKAPQVLIFGASNLQSGVPSRFSGSGSGTDFTLTISSLQPEDFATYFCQQTYSTPITFGQGTRLEIK ? 3.23

Return reported log10 FACS M2-HK MFI; argument: 3253_P10 (antibody, V domains shown) VH: QVQLQESGPGLLKPSDTLALTCTVSGGSITSDYWSWIRQPPGRGLDWIGFFYNGGSTKYNPSLKSRVTISADTSKNQLSLKLTSVTAADTGVYYCARHDAKFSGSYYVASWGQGTRVTVSS VL: DIQMTQSPSSLSASVGDRVTISCRASQSISTYLNWYQQQPGKAPKVLISGATDLQSGVPSRFSGSGSGTDFTLTISSLQPEDFATYYCQQSYNTPLIFGQGTKLEIK 1.63

# get_value(readout='log10 FACS M2-HK MFI', item= 3420_I23 (antibody, V domains shown) VH: QVQLQESGPGLVKPSETLSVTCKVSGDSISSYSWSWIRQPPGKGLEWVGYLYYSGSTKYNPSLKSRTTISVDTSTNQLSLKLSFVTAADTAVYFCARTGSESTTGYGMDVWGQGTTVTVSS VL: DIQMTQSPSSLSASVGDRVTITCRASQSISTYLNWYQQKPGKAPKLLIYAASSLHSGVPSRFSGSGSGTDFALTISSLQPEDFATYYCQQSYSPPITFGQGTRLEIK ) 2.05
